Data provenance: patent US11634417B2

Experimental Target: full-length SHP2 (Homo sapiens)
Construct: 1 nM full-length SHP2 (His6-tagged SHP2(2-527), recombinantly expressed in E. coli and purified in-house); His6
Sequence (Q06124 2-527): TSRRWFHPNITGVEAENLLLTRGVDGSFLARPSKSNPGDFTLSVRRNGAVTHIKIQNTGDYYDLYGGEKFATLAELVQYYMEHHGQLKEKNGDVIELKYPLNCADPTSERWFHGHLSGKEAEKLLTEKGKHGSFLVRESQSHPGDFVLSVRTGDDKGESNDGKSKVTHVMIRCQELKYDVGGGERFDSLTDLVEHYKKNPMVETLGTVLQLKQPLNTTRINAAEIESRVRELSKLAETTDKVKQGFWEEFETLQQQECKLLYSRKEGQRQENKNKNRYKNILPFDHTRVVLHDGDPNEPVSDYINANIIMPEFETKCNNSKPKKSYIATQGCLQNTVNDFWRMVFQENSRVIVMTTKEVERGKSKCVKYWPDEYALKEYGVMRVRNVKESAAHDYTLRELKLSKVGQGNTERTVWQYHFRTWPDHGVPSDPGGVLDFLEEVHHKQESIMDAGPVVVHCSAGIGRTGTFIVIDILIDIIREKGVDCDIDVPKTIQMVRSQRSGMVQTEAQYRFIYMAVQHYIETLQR
Assay Method Text: SHP2 enzymatic assay (fluorescence intensity kinetic assay, DiFMUP hydrolysis)
Condition: 1 nM His6-tagged SHP2(2-527), 1 μM activating peptide, 50 μM DiFMUP; single assay or mean of multiple assays; read-out: Biological Example 1 IC50
Property Name: IC50 (nM)

- COc1cc2c(cc1Cl)[C@H](N)C1(CCN(c3ncc(Sc4ccnc(N)c4Cl)nn3)CC1)C2 [Example 63]: 254
- Nc1nccc(Sc2cnc(N3CCC4(CC3)Oc3ccccc3[C@H]4N)nn2)c1Cl [Example 23]: 35
- COc1cnc2c(c1)[C@@H](N)C1(CCN(c3ncc(Sc4ccnc(N)c4Cl)nn3)CC1)C2 (single isomer, unassigned) [Example 44]: 37
- C[C@@H]1OCC2(CCN(c3ncc(Sc4ccnc(N)c4Cl)nn3)CC2)[C@@H]1N [Example 1]: 59
- Cn1ccc2c(Sc3cnc(N4CCC5(CC4)Cc4ccccc4[C@H]5N)nn3)ccnc21 [Example 73]: 32

1 = CNc1nccc(Sc2cnc(N3CCC4(CC3)Cc3cc(C#N)ccc3[C@@H]4N)nn2)c1Cl (single isomer, unassigned) [Example 42]
2 = CNc1nccc(Sc2cnc(N3CCC4(CC3)Cc3cc(C#N)ccc3[C@H]4N)nn2)c1Cl (single isomer, unassigned) [Example 41]
3 = Nc1nccc(Sc2cnc(N3C4CCC3CC3(Cc5ccccc5[C@H]3N)C4)nn2)c1Cl (stereo partly shown) [Example 78]
4 = Nc1nccc(Sc2cnc(N3CCC4(CC3)Cc3ncccc3[C@H]4N)nn2)c1Cl [Example 24]
Asked: Ranking field: IC50; order: falling. Hello, could you send the labels back in the order asked? Thank you.
Given back: 3, 1, 2, 4
(3: 15000 nM, 1: 209 nM, 2: 79 nM, 4: 47 nM)

a = N[C@@H]1c2ccccc2CC12CCN(c1ncc([Se]c3ccccc3)nn1)CC2 [Example 40]
b = Cc1cccc2c1CC1(CCN(c3ncc(Sc4ccnc(N)c4Cl)nn3)CC1)[C@H]2N [Example 49]
c = N[C@@H]1c2ccccc2CC12CCN(c1ncc(Sc3cnc4ncccn34)nn1)CC2 [Example 68]
Asked: Ranking field: IC50; order: falling. Hello, could you send the labels back in the order asked? Thank you.
Given back: b, c, a

1 = C[C@@H]1OCC2(CCN(c3ncc(Sc4c(Cl)cnc5[nH]ccc45)nn3)CC2)[C@@H]1N [Example 9]
2 = Nc1nccc(Sc2cnc(N3CCC4(CC3)Cc3cc(Cl)ccc3[C@H]4N)nn2)c1Cl [Example 17]
Asked: Compare IC50: is it lower for 1 or for 2 ? Label of pick, please.
Given back: 2
(2: 25 nM, 1: 358 nM)
